# Test system: MALME-3M melanoma
# EXPERIMENTAL PROTOCOL: NCI-60 one-dose screen, 48 h (100 = growth as untreated, 0 = no growth, -100 = all killed)
# PROTOCOL CONDITIONS: 10 µM unless noted
This is part of a sample that, as a whole, favours compounds with a hit. Of some 83,000 tested, about 20% had one in any assay. The source made the active and inactive calls. Rule for the calls: active = growth percent below 10; inactive = the rest.
OBSERVABLE: growth

In [3]: df
Out[3]:
                                   molecule      target_entity  experimental_value
0  COc1cc(C2CC(c3cc(OC)c(OC)c(OC)c3)=NN2C(C)=O)ccc1OCc1ccc(F)cc1 (centres undefined)  MALME-3M melanoma    81.8% (inactive)
1  COC(OC)C1=C(C)OC(N)=C(C#N)C12C(=O)Nc1ccccc12 (centres undefined)  MALME-3M melanoma    87.2% (inactive)
2  Cc1cccc(NC(=O)CN2CCN(c3ncnc4c3cnn4-c3ccccc3)CC2)c1  MALME-3M melanoma    99.4% (inactive)

Reported growth for COc1cc2oc(-c3cccc(C(=O)Nc4ccc(Cl)cc4)c3)cc(=O)c2c(OCCNC(=O)[C@H](CCC(=O)OC(C)(C)C)NC(=O)OC(C)(C)C)c1OC : what is it?
106% (inactive)

###

# Tested on: HCT-116 colon
# EXPERIMENTAL PROTOCOL: NCI-60 one-dose screen, 48 h
# PROTOCOL CONDITIONS: 10 µM unless noted
About 83,000 compounds went through this panel and 20% of them were active in at least one assay; those are over-represented in the sample as a whole. Activity calls are given as the source filed them. How the source made its calls: active means growth percent below 10; inactive means the rest.
Returns: one label drawn from 1.0 for active, 0.0 for inactive

See these solved cases before continuing.
                                   molecule  group_label
0  NS(=O)(=O)c1ccc(CCNC(=O)CSc2ccc(-c3ccc(Br)cc3)nn2)cc1          0.0
1  CN1CCN(/C(=N\c2sc(-c3ccccc3)nc2-c2ccccc2)c2ccccc2)CC1          0.0
2  C=C1CC[C@@H]2[C@]3(C)COC(c4ccco4)O[C@@H]3CC[C@@]2(C)[C@@H]1C/C=C1/C(=O)OCC1OC(C)=O (some centres undefined)          1.0
3  C/C(=N\N=C\c1cc([N+](=O)[O-])ccc1Cl)c1ccc2c(c1)Nc1ccccc1S2          0.0
4  Cc1ccc(/C=C/c2n(Cc3ccc4ccccc4c3)c3ccccc3[n+]2Cc2ccc3ccccc3c2)cc1          1.0

Call for entry COc1ccc(/C=C/c2n(Cc3ccc4ccccc4c3)c3ccccc3[n+]2Cc2ccc3ccccc3c2)cc1 :
1.0

Call for entry CC1=C(C(=O)c2ccccc2)C(c2cccc(Cl)c2Cl)n2c(nc3ccccc32)N1 (centres undefined) :
0.0

Call for entry COc1ccc(-c2nc3cc(C)ccc3n2CC(=O)N=Nc2c(O)[nH]c3ccc(OC)cc23)cc1 :
1.0

Call for entry O=C(O)c1ccc(-c2ccc(/C=N/NC(=O)c3[nH]c4ccc(Br)cc4c3-c3ccccc3)o2)cc1 :
1.0

###

# Test system: SF-268 CNS
# EXPERIMENTAL PROTOCOL: NCI-60 one-dose screen, 48 h
# PROTOCOL CONDITIONS: 10 µM unless noted
This is part of a sample that, as a whole, favours compounds with a hit. Of some 83,000 tested, about 20% had one in any assay. Activity calls are given as the source filed them. How the source made its calls: active means growth percent below 10; inactive means the rest.
Returns: one label drawn from 1 (active), -1 (inactive)

MOLECULE	GROUP LABEL
Cc1ncsc1-c1ccc(CNC(=O)[C@@H]2C[C@@H](O)CN2C(=O)[C@@H](NC(=O)C2(F)CC2)C(C)(C)C)c(OCCOCCOCCOCCOc2nc(Nc3cc(S(C)(=O)=O)ccc3N[C@@H](c3cccc4c3OC(F)(F)O4)c3ncccc3Cl)nc(N3CCNCC3)n2)c1	-1
COc1ccc(C2(SCCNCc3cc(N(C)C)ccn3)c3ccccc3C=Cc3ccccc32)cc1	-1
O=C(Cn1nc(-c2ccccc2)ccc1=O)N/N=C/c1ccc(N2CCOCC2)cc1	-1

Call for entry CN(C)c1nc(NCCNS(=O)(=O)c2ccc(C3=Nc4c(N)nc(N)nc4NC(c4ccc(C(F)(F)F)cc4)C3)cc2)nc(Nc2ccc(F)cc2)n1 (centres undefined) :
-1

Call for entry CCCCCCCS(=O)(=O)N1CCCC(C(=O)Nc2nc3ccc(NC(=O)c4ccc(F)c(OC)c4F)cc3s2)C1 (centres undefined) :
-1

Call for entry COc1ccc2[nH]c(=O)c(CSc3nccc(-c4ccc(OC)c(OC)c4)n3)cc2c1 :
-1

###

# System: MDA-MB-231 breast
# EXPERIMENTAL PROTOCOL: NCI-60 one-dose screen, 48 h
# PROTOCOL CONDITIONS: 10 µM unless noted
The panel holds about 83,000 compounds, 20% with a hit somewhere; the sample as a whole holds those more often. Activity calls are given as the source filed them. How the source made its calls: active means growth percent below 10; inactive means the rest.
Returns: one label drawn from class 1 for active, class 0 for inactive

In [3]: df
Out[3]:
                                   compound  group_label
0  Cc1nc(Nc2ccccn2)sc1C(=O)CC(SCC(=O)Nc1ccc(Cl)cc1)c1ccccc1F (stereo not drawn)      class 1
1  Cc1cccc(Nc2nc3ccccc3nc2/C=C/c2ccc(F)cc2)c1      class 0
2  COc1cc2c(c(OC)c1OC)C(=O)CC(c1cccc(NC(=O)c3cccc(NC(=O)[C@H](C)NC(=O)OC(C)(C)C)c3)c1)O2 (stereo partly drawn)      class 0
3  COc1ccc(N2N=C(c3ccc4c(c3)OCO4)CC2c2cccc(NC(=O)CCNS(=O)(=O)c3ccc(Cl)cc3)c2)cc1 (stereo not drawn)      class 1
4  CC12CC[C@@H]3[C@]4(C)COC(c5cn[nH]c5-c5cccc(Cl)c5)O[C@@H]4CC[C@@]3(C)[C@@H]1CC(C1=CCOC1=O)O2 (stereo partly drawn)      class 0

Call for entry Brc1ccc(-c2n(Cc3ccc4ccccc4c3)c(-c3ccccc3)c(-c3ccccc3)[n+]2Cc2ccc3ccccc3c2)cc1 :
class 1

Call for entry C#CCOc1cc(N(CC)CC)ccc1C(C(=O)NC(C)(C)C)N(C(=O)C1CCc2cc(F)ccc2O1)c1ccccc1Br (stereo not drawn) :
class 0

Call for entry CC(/C=C1\SC(=S)N(CCCC(=O)NC(CC(C)C)C(=O)O)C1=O)=C\c1ccccc1 (stereo not drawn) :
class 0

###

# System: SNB-75 CNS
# EXPERIMENTAL PROTOCOL: NCI-60 one-dose screen, 48 h (100 = growth as untreated, 0 = no growth, -100 = all killed)
# PROTOCOL CONDITIONS: 10 µM unless noted
Compounds without any hit were thinned out: in the full panel of roughly 83,000, 20% have a hit.
Sorting guide: entries reporting growth beneath 70% go in the T pile, the rest go in the F pile.

See these solved cases before continuing.
>>> df
                                   compound  group_label
0  COc1cc(C2CC(c3cc(OC)c(OC)c(OC)c3)=Nc3c(N)nc(N)nc3N2)ccc1Oc1nc(NCCO)nc(N2CCOCC2)n1 (centres undefined)            F
1  COc1ccc(C(=O)/C=C/c2ccc(OCc3ccccc3)c(OC)c2)cc1OC            T
2  COc1ccc(NC(=O)[C@H](CO)NC(=O)OC(C)(C)C)cc1C(=O)Nc1cccc(C2CC(=O)c3c(cc(OC)c(OC)c3OC)O2)c1 (some centres undefined)            T

Given the entry C#CCOc1ccc(/C=N/Nc2nc(-c3ccc(F)cc3)cs2)cc1OC , would its reported growth be below 70%?
F

Given the entry CC(=O)Oc1ccccc1C(=O)[Se]CC(=O)Nc1cccc(C(F)(F)F)c1 , would its reported growth be below 70%?
T

Given the entry Cc1ccc(-c2nnc3ccc(N/N=C/c4ccccc4)nn23)cc1 , would its reported growth be below 70%?
T

Given the entry CN(C)c1nc(NCCNS(=O)(=O)c2ccc(C3=Nc4c(N)nc(N)nc4NC(c4ccc(Cl)cc4)C3)cc2)nc(Nc2ccc(F)cc2)n1 (centres undefined) , would its reported growth be below 70%?
T

Given the entry COc1ccc(-c2nc(SC(C)C)nc(NCCc3c[nH]c4ccccc34)c2C#N)cc1 , would its reported growth be below 70%?
T

Given the entry Cc1cccc(NC(=O)CN2CCN(c3ncnc4c3cnn4-c3ccccc3)CC2)c1 , would its reported growth be below 70%?
F

###

# Test system: OVCAR-8 ovarian
# EXPERIMENTAL PROTOCOL: NCI-60 one-dose screen, 48 h (100 = growth as untreated, 0 = no growth, -100 = all killed)
# PROTOCOL CONDITIONS: 10 µM unless noted
Compounds without any hit were thinned out: in the full panel of roughly 83,000, 20% have a hit. Calls of active or inactive are those of the source. Rule for the calls: active = growth percent below 10; inactive = the rest.
OBSERVABLE: growth

Below, 2 compounds whose answers are already recorded.
>>> df
                                   compound  experimental_value
0  O=C(c1ccccc1)C(c1c[nH]c2ccccc12)c1c[nH]c2ccccc12    64.4% (inactive)
1  COc1ccc(N2N=C(c3ccc4c(c3)OCO4)CC2c2cccc(NC(=O)CCCNS(=O)(=O)c3ccc(F)cc3)c2)cc1 (stereo not drawn)    78.8% (inactive)

Reported growth for CC(C)c1sc(NC(=O)c2cc(NC(=O)c3cc(NC(=O)c4cscn4)cn3C)cn2C)nc1C(=O)NCCCN(C)C : what is it?
2.77% (active)
